tested.target: F508delCFTR (Homo sapiens, UniProt P13569, DEL508-508)
Construct: expressed in transfected cells; host or cells: CFBE41o- human lung-derived epithelial cells (CFBE4lo-F508delCFTR-HRP), doxycycline-inducible
Sequence (P13569 with tags, fused parts or gaps DEL508-508): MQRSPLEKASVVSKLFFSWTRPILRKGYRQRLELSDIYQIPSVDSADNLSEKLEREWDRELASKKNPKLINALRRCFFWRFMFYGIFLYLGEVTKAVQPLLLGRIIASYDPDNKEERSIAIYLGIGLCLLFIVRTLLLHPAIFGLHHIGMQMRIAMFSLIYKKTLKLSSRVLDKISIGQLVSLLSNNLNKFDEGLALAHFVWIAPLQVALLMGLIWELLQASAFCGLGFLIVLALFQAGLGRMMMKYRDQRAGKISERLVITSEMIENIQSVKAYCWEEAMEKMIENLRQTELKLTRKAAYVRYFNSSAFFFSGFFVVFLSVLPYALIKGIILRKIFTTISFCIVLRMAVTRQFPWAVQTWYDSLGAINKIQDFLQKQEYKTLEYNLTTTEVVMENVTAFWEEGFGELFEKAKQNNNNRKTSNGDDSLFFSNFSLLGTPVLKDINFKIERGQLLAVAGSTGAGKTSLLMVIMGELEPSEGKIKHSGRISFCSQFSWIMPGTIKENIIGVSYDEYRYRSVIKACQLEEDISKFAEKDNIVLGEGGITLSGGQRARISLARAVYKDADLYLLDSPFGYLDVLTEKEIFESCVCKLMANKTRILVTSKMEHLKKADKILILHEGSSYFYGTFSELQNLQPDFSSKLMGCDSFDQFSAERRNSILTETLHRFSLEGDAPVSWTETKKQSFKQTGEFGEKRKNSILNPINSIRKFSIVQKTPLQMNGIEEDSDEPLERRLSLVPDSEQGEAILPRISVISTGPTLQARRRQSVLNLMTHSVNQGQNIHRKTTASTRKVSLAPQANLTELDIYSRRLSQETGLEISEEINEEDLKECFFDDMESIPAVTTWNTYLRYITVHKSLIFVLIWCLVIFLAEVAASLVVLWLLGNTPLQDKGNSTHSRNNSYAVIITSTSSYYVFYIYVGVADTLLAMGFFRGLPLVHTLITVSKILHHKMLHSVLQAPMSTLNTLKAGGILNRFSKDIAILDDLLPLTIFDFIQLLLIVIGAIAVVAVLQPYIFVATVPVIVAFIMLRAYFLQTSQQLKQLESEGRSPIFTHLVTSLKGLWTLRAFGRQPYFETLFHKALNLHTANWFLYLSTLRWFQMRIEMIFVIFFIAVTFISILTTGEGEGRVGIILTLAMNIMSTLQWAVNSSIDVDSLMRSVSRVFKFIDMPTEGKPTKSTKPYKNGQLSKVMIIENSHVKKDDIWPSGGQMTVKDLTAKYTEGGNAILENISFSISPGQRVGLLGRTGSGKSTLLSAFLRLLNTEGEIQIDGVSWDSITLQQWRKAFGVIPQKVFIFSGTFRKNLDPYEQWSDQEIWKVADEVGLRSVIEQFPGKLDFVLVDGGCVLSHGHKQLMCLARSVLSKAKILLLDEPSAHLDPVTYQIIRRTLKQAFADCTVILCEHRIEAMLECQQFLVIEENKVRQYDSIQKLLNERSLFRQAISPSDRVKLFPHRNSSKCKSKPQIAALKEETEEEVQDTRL
protocol.details: Cell Surface Expression-Horse Radish Peroxidase (CSE-HRP) Assay;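 for Maximum % activity (with co-corrector): co-corrector and positive control are both the same reference corrector at 2 µM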
Assay type: cell-based
experimental.conditions: with co-corrector (2 μM); maximum at any tested concentration, normalized to on-plate positive control
property: Maximum % activity (with co-corrector)

molecule: Cc1cc(C(F)(F)F)cc(N[C@H]2[C@@H](c3ccccc3)N(C(=O)C3CCCCC3)[C@@H](C(=O)O)C23CC3)n1 (racemic)
property: Maximum % activity (with co-corrector)
data.value: ++ (≥150 and <350)

molecule: COc1ccc(Cl)cc1CN[C@H]1[C@H](C(C)(C)C)[C@@H](C(=O)O)N(C(=O)C2CCCCC2)[C@H]1c1ccccc1OC
property: Maximum % activity (with co-corrector)
data.value: +++ (≥350)

molecule: COc1ccc(C(C)(C)C)cc1CN[C@H]1[C@H](C(C)(C)C)[C@@H](C(=O)O)N(C(=O)Cc2ccc(Cl)cc2)[C@H]1c1ccccc1
property: Maximum % activity (with co-corrector)
data.value: +++ (≥350)

molecule: Cc1cc(CN[C@H]2[C@H](C(C)(C)C)[C@@H](C(=O)O)N(C(=O)C3CCCCC3)[C@H]2c2ccccc2)cc(C)c1OC(F)F
property: Maximum % activity (with co-corrector)
data.value: ++ (≥150 and <350)

molecule: CC(C)(C)[C@H]1[C@H](NCc2ccc3c(c2)OC(F)(F)O3)[C@H](c2ccccc2)N(C(=O)C2CCCCC2)[C@@H]1C(=O)O
property: Maximum % activity (with co-corrector)
data.value: ++ (≥150 and <350)

Prompt: Record lookup: for F508delCFTR (Homo sapiens, UniProt P13569, DEL508-508), what Maximum % activity (with co-corrector) belongs to COc1cc(C(F)(F)F)ccc1CN[C@@H]1[C@@H](C(C)(C)C)[C@H](C(=O)O)N(C(=O)OC(C)C)[C@@H]1c1cccnc1N(C)C (racemic) ?
Response: +++ (≥350)

Prompt: Recall the recorded Maximum % activity (with co-corrector) for COc1cc(C(F)(F)F)ccc1CN[C@@H]1[C@@H](C(C)(C)C)[C@H](C(=O)O)N(C(=O)[C@H]2CCCCO2)[C@@H]1c1ccccc1 with F508delCFTR (Homo sapiens, UniProt P13569, DEL508-508) and state it.
Response: ++ (≥150 and <350)

Prompt: Lab note: need Maximum % activity (with co-corrector) with F508delCFTR (Homo sapiens, UniProt P13569, DEL508-508) for entry COc1ncc(C2CC2)cc1CN[C@H]1[C@H](C(C)(C)C)[C@@H](C(=O)O)N(C(=O)[C@@H]2CCCCO2)[C@H]1c1ccccc1C(C)C , please look it up.
Response: +++ (≥350)

Prompt: What Maximum % activity (with co-corrector) appears in the records for this molecule with F508delCFTR (Homo sapiens, UniProt P13569, DEL508-508)? COc1ccc(C(C)(C)C)cc1CN[C@H]1[C@H](C(C)(C)OC)[C@@H](C(=O)O)N(C(=O)OC(C)C)[C@H]1c1cccnc1N(C)C
Response: +++ (≥350)

Prompt: Look up Maximum % activity (with co-corrector) with F508delCFTR (Homo sapiens, UniProt P13569, DEL508-508) for this molecule: COc1ccc(C(F)(F)F)cc1CN[C@H]1[C@H](C(C)(C)C)[C@@H](C(=O)O)N(C(=O)C2(S(C)(=O)=O)CC2)[C@H]1c1ccccc1
Response: ++ (≥150 and <350)

Prompt: F508delCFTR (Homo sapiens, UniProt P13569, DEL508-508) / Maximum % activity (with co-corrector) / COc1ccc(OC(F)F)c(CN[C@@H]2[C@@H](C(C)(C)C)[C@H](C(=O)O)N(C(=O)C3CCCCC3)[C@@H]2c2ccccc2)c1 (racemic) : value?
Response: ++ (≥150 and <350)

----------
tested.target: F508delCFTR (Homo sapiens, UniProt P13569, DEL508-508)
Construct: expressed in transfected cells; host or cells: CFBE41o- human lung-derived epithelial cells (CFBE4lo-F508delCFTR-HRP), doxycycline-inducible
protocol.details: Cell Surface Expression-Horse Radish Peroxidase (CSE-HRP) Assay;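 for Maximum % activity (with co-corrector): co-corrector and positive control are both the same reference corrector at 2 µM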
Format: cell-based
experimental.conditions: CSE-HRP; with co-corrector (2 μM); maximum at any tested concentration, normalized to on-plate positive control
property: Maximum % activity (with co-corrector)

Solved entries (count: 5):
compound: COc1ccc(C(C)(C)C)cc1CN[C@H]1[C@H](C(C)(C)C)[C@@H](C(=O)O)N(C(=O)Cc2cc(F)cc(F)c2)[C@H]1c1ccccc1
Maximum % activity (with co-corrector): +++ (≥350)

compound: COc1cc(F)ccc1CN[C@H]1[C@H](C(C)(C)C)[C@@H](C(=O)O)N(C(=O)C2CCCCC2)[C@H]1c1ccccc1
Maximum % activity (with co-corrector): +++ (≥350)

compound: COc1ccc(Cl)cc1CN[C@H]1[C@H](C(C)(C)C)[C@@H](C(=O)O)N(C(=O)C2CCCO2)[C@H]1c1ccccc1 (mixture of isomers)
Maximum % activity (with co-corrector): +++ (≥350)

compound: COc1ccc(-c2cccc(F)c2F)cc1CN[C@H]1[C@H](C(C)(C)C)[C@@H](C(=O)O)N(C(=O)C2CCCCC2)[C@H]1c1ccccc1
Maximum % activity (with co-corrector): +++ (≥350)

compound: COc1ncc(C(C)C)cc1CN[C@H]1[C@H](C(C)(C)OC)[C@@H](C(=O)O)N(C(=O)C2CCCCC2)[C@H]1c1ccccc1
Maximum % activity (with co-corrector): +++ (≥350)

Prompt: Name the reported Maximum % activity (with co-corrector) value associated with the compound COc1ccc(C(F)(F)F)cc1CN[C@H]1[C@H](C(C)(C)C)[C@@H](C(=O)O)N(C(=O)C2CCCO2)[C@H]1c1ccccc1 (mixture of isomers)
Response: +++ (≥350)

Prompt: # input compound: COc1ncc(C(F)(F)F)cc1CN[C@H]1[C@H](C(C)(C)C)[C@@H](C(=O)O)N(C(=O)[C@@H]2CCCCO2)[C@H]1c1cccc2c1OCC2 ; wanted: its Maximum % activity (with co-corrector)
Response: +++ (≥350)

Prompt: Looking for the measured Maximum % activity (with co-corrector) of COc1cc(C(F)(F)F)ccc1CN[C@@H]1[C@@H](C(C)(C)C)[C@H](C(=O)O)N(C(=O)C(C)Oc2ccccc2)[C@@H]1c1ccccc1 (single isomer, unassigned) [II-58] , can you help?
Response: ++ (≥150 and <350)

Prompt: Which value of Maximum % activity (with co-corrector) has been reported for COc1ncc(C(F)(F)F)cc1CN[C@H]1[C@H](C(C)(C)C)[C@@H](C(=O)O)N(C(=O)[C@@H]2CCCO2)[C@H]1c1ccccc1Br in the records?
Response: +++ (≥350)

Prompt: Looking for the measured Maximum % activity (with co-corrector) of COc1ncc(C2CCC2)cc1CN[C@H]1[C@H](C(C)(C)C)[C@@H](C(=O)O)N(C(=O)[C@H]2CCC[C@@H](C(F)(F)F)C2)[C@H]1c1ccccc1 (relative stereo) , can you help?
Response: ++ (≥150 and <350)

Prompt: So what does the record say about Maximum % activity (with co-corrector) for CC(C)COc1ccccc1CN[C@@H]1[C@@H](C(C)(C)C)[C@H](C(=O)O)N(C(=O)C2CCCCC2)[C@@H]1c1ccccc1 (racemic) ?
Response: +++ (≥350)

Prompt: Maximum % activity (with co-corrector) for COc1ccc(C(C)(C)C)cc1CN[C@H]1[C@H](C(C)(C)C)[C@@H](C(=O)O)N(C(=O)Cc2ncc(Cl)cc2F)[C@H]1c1ccccc1 ?
Response: +++ (≥350)

----------
tested.target: F508delCFTR (Homo sapiens, UniProt P13569, DEL508-508)
Construct: expressed in transfected cells; host or cells: CFBE41o- human lung-derived epithelial cells (CFBE4lo-F508delCFTR-HRP), doxycycline-inducible
protocol.details: Cell Surface Expression-Horse Radish Peroxidase (CSE-HRP) Assay
Format: cell-based
experimental.conditions: CSE-HRP; with co-corrector (2 μM of 3-[(2R,4R)-4-({[1-(2,2-difluoro-1,3-benzodioxol-5-yl)cyclopropyl]carbonyl}amino)-7-methoxy-3,4-dihydro-2H-chromen-2-yl]benzoic acid); read-out: EC50 (with co-corrector)
Parameter: EC50. Scope: all listed entries.

Worked cases, EC50 given:
molecule: COc1ccc(C(F)(F)F)cc1CN[C@H]1[C@H](C(C)(C)C)[C@@H](C(=O)O)N(C(=O)[C@@H]2CCCCO2)[C@H]1c1ccccc1Br [Example I-290]
tested.target: F508delCFTR (Homo sapiens, UniProt P13569, DEL508-508)
property: EC50
data.value: 1000 to 10000 nM
--
molecule: COc1ccc(Cl)cc1CN[C@@H]1[C@@H](C(C)(C)C)[C@H](C(=O)O)N(C(=O)C2COCCO2)[C@@H]1c1ccccc1 (mixture of isomers) [II-86]
tested.target: F508delCFTR (Homo sapiens, UniProt P13569, DEL508-508)
property: EC50
data.value: 1000 to 10000 nM
--
molecule: COc1ncc(C2CCCCC2)cc1CN[C@H]1[C@H](C(C)(C)OC)[C@@H](C(=O)O)N(C(=O)C2CCCCC2)[C@H]1c1ccccc1 [II-252]
tested.target: F508delCFTR (Homo sapiens, UniProt P13569, DEL508-508)
property: EC50
data.value: < 1000 nM

Prompt: What measured EC50 goes with COc1ncc(Br)cc1CN[C@H]1[C@H](C(C)(C)C)[C@@H](C(=O)O)N(C(=O)OC(C)C)[C@H]1c1ccccc1 [II-170] ?
Response: 1000 to 10000 nM

Prompt: Which EC50 value is on record for COc1ccc(C(F)(F)F)cc1CN[C@@H]1[C@@H](C(C)(C)C)[C@H](C(=O)O)N(C(=O)C2CCC3(CC2)CC3)[C@@H]1c1ccccc1 (racemic) [II-70] ?
Response: 1000 to 10000 nM

Prompt: Fill blank: measured EC50 of the molecule COc1ccc(C(C)(C)C)cc1CN[C@H]1[C@H](C(C)(C)C)[C@@H](C(=O)O)N(C(=O)Cc2ccccc2F)[C@H]1c1ccccc1 [II-206] is ____.
Response: < 1000 nM

Prompt: Recorded EC50 for COc1cccc(Cl)c1CN[C@@H]1[C@@H](C(C)(C)C)[C@H](C(=O)O)N(C(=O)C2CCCCC2)[C@@H]1c1ccccc1 (racemic) [II-10] , please?
Response: 1000 to 10000 nM
